The molecules listed here are annotated with their TGI.
Tested on: ACHN renal
Experiment: NCI tumour cell line growth inhibition, 48 h
ASSAY READOUT: TGI

| MOLECULE | ASSAY READOUT | ASSAY VALUE |
| --- | --- | --- |
| COc1ccc(Nc2ccnc(NCCNc3ccnc4cc(Cl)ccc34)n2)cc1 | TGI | 6.06 µM |
| COc1cc([C@@H]2c3cc4c(cc3C(Br)[C@H]3COC(=O)[C@H]23)OCO4)cc(OC)c1OC (some centres undefined) | TGI | > 100 µM |
| O=C(Nc1nnc(-c2ccccc2)o1)C(SC(=S)N1CCOCC1)c1ccccc1 (centres undefined) | TGI | > 100 µM |
| O=C1CCC2CCc3cccc4oc1c2c34 (centres undefined) | TGI | > 100 µM |
| N#Cc1c(N2CCCC2)ncn(Cc2ccccc2)c1=S | TGI | > 100 µM |
| C[C@H](CC[C@@H](O)C(C)(C)O)[C@H]1CC[C@@]2(C)[C@@H]3CC=C4[C@@H](CC[C@H](O)C4(C)C)[C@]3(C)C(=O)C[C@]12C | TGI | > 50 µM |
| Cc1cc(Nc2ccc(N=Nc3ccc(O)c4ncccc34)cc2)nc(C)n1 | TGI | > 77.9 µM |
| CSc1ccc(-c2cc(-c3ccc(NC(=O)CCCN4CCCC4)cc3)nc(-c3ccc(NC(=O)CCCN4CCCC4)cc3)c2)cc1 | TGI | 13.9 µM |
| Cc1cn(CC2=NCCCN2)c(=O)[nH]c1=O | TGI | > 100 µM |
